FYI, the data here is from ChEMBL document CHEMBL1201862.

- System: U-251
- Method notes: NCI tumour cell line growth inhibition, 48 h
Calls of active or inactive are those of the source. Cut-off read from the data, not from the text of the source: active = GI50 up to about 1.1 µM and inactive = higher.
Classes used: active, inactive

CCN(CC)CCNC(=O)c1cc2cc(NC(=O)c3cc4cc(NC(=O)c5cc6cc(N)ccc6[nH]5)ccc4[nH]3)ccc2[nH]1 ... inactive
Oc1ccc(-c2c3c(nc4c2CCc2ccc(Br)cc2-4)-c2cc(Br)ccc2CC3)cc1 ... inactive
O=P1(N(CCCl)CCCl)Oc2ccc(Cl)cc2C(C(Cl)(Cl)Cl)c2cc(Cl)ccc2O1 (centres undefined) ... inactive
CCCCCCCCCCCC(=O)C1=C(O)CCC(O)C1=O (centres undefined) ... inactive
COc1ccc2c(c1)CCC(CN1CCN(CCOC(c3ccc(F)cc3)c3ccc(F)cc3)CC1)C2O (centres undefined) ... inactive
CCOP(=O)(/C=C/n1ccc(=O)[nH]c1=O)OCC ... inactive
CC1(O)CC2C(CC1SC1CC3C(CC1(C)O)C3(C)C)C2(C)C (centres undefined) ... inactive
COc1ccc(Nc2nc3ccccc3nc2C(=O)O)cc1 ... inactive
CO[C@@H](c1ccccc1)[C@H](O)[C@](O)(c1ccccc1)P(=O)(OC)OC ... inactive
O=c1oc2c(ccc3c(O)cccc32)c2c1CCCC2 ... inactive
COc1cc2c(cc1OC)-c1c3c(cc4c1[C@@H](C2)N(C)CC4)OCO3 ... inactive
Cc1nc(C)c(C(=O)NNC(=O)Cc2ccccc2)cc1C(=O)NNC(=O)Cc1ccccc1 ... inactive
COc1ccccc1NC(=O)C1=C(C)NC(C)=C(C(=O)Nc2ccccc2OC)C1c1ccccc1F ... inactive
O=C1NC2CCCCCC2C12CCCCC2 (centres undefined) ... inactive
O=C1c2cccc3cccc(c23)C(=O)N1O ... inactive
COc1ccc(CC2C(=O)NC(C)C(=O)N(C)C3C(=O)N(C)C(Cc4ccc(O)c(c4)Oc4ccc(cc4)C3O)C(=O)NC(C)C(=O)NC(C)C(=O)N2C)cc1.COc1ccc(CC2C(=O)NC(C)C(=O)N(C)C3Cc4ccc(cc4)Oc4cc(ccc4O)CC(C(=O)NC(C)C(=O)NC(C)C(=O)N2C)N(C)C3=O)cc1 (centres undefined) ... active
O=C(NCc1ccc(Cl)c(Cl)c1)c1nc2ccccc2nc1NCc1ccc(Cl)c(Cl)c1 ... inactive
CNC(=S)NNc1ncnc2c1ncn2-c1ccc(C)cc1 ... inactive
COc1ccccc1C[C@@H]1OC2(C=CC(=O)C=C2)O[C@H]1Cc1ccccc1OC ... inactive
Nc1cc(O)c2cc(/N=N/c3ccc(/N=N/c4ccc(/N=N/c5ccc6cc(S(=O)(=O)O)cc(S(=O)(=O)O)c6c5)c5ccccc45)c4cc(S(=O)(=O)O)ccc34)c(S(=O)(=O)O)cc2c1 ... inactive
NS(=O)(=O)c1ccc(NCc2cnc3ccccc3c2)cc1 ... inactive
Cn1c2ccccc2c2ccc3c(c21)C(=O)C(c1ccccc1)=CC3=O ... inactive
CC1=C(CC2C(=O)N(c3ccccc3)S(=O)(=O)NC2C)C(=O)N(c2ccccc2)S(=O)(=O)N1C (centres undefined) ... inactive
COc1cc2c(c(OC)c1OC)-c1ccc(SC)c(=O)cc1[C@@H](NC(=O)c1ccc(F)cc1)CC2 ... active
C=CCCCCC1CCC2CCC(CCCCC=C)N12 (centres undefined) ... inactive
O=C1C2C(C(=O)N1c1ccccc1)C1([N+](=O)[O-])C=C3c4ccccc4N(C(=O)c4ccccc4)C32C2C(=O)N(c3ccccc3)C(=O)C21 (centres undefined) ... inactive
COC(=O)C#CCC1CCCC1C1SCCS1 (centres undefined) ... inactive
Nc1nc(Cl)cc(NCC2(CO)CC(c3ccccc3)C2)n1 (centres undefined) ... inactive
CC1(c2ccc(Cl)cc2)C=C(c2ccc(Cl)cc2)C(C#N)=C(C(C#N)C#N)N1.CNC (centres undefined) ... inactive
